Assay: Human liver microsomal stability of compound in microsomal protein, PBS buffer pH 7.4, NADPH, glucose-6-phosphate and glucose-6-phosphate dehydrogenase media. Aliquotes were taken at 5 time points and after stopping the reaction, supernatants were analyzed using HPLC coupled with a tandem mass spectrometer. The elimination constant, half-life, and intrinsic clearance are determined as results using linear regression analysis. The assay has been performed by Enamine biological services, Bienta Ltd.The protocol is publicly available: dx.doi.org/10.17504/protocols.io.5qpvokdb9l4o/v1
Assay type: ADME, microsomes, Microsome
Details: microsomes
Measurement Name: Remaining (without cofactor) (%)

*Q* I would be grateful if you could share the reported Remaining (without cofactor) for CC(C)[C@H](Nc1ncnc2[nH]c(-c3cnn(C)c3C#N)cc12)c1ccc2c(c1)S(=O)(=O)CCC2 .
*A* 101

*Q* I would be grateful if you could share the reported Remaining (without cofactor) for CNC(=O)c1c[nH]c2ncnc(N[C@H](c3ccc4c(c3)S(=O)(=O)CCC4)C(C)C)c12 .
*A* 94

*Q* I would be grateful if you could share the reported Remaining (without cofactor) for COc1ccc([C@@H](CC(=O)O)NC(=O)c2ncnc3[nH]ccc23)cc1 .
*A* 88

*Q* I would be grateful if you could share the reported Remaining (without cofactor) for CC(C)[C@@H](Nc1ncnc2[nH]ccc12)c1ccc2c(c1)S(=O)(=O)CCC2 .
*A* 99

*Q* I would be grateful if you could share the reported Remaining (without cofactor) for COc1ccc2c(c1)CCN(c1ncnc3[nH]ccc13)[C@H]2C(C)C .
*A* 103

*Q* I would be grateful if you could share the reported Remaining (without cofactor) for CNC(=O)c1cc2c(N[C@@H](c3ccc4c(c3)OCCO4)C(C)C)ncnc2[nH]1 .
*A* 92

*Q* I would be grateful if you could share the reported Remaining (without cofactor) for COc1ccc([C@H](Cc2nnn[nH]2)NC(=O)c2ncnc3[nH]ccc23)cc1 .
*A* 84.68

*Q* I would be grateful if you could share the reported Remaining (without cofactor) for Cc1nn(C)cc1-c1cc2c(N[C@@H](c3ccc4c(c3)S(=O)(=O)CCC4)C(C)C)ncnc2[nH]1 .
*A* 116

*Q* I would be grateful if you could share the reported Remaining (without cofactor) for CC(C)[C@H](Nc1ncnc2[nH]ccc12)c1ccc2c(c1)NC(=O)CO2 .
*A* 95

*Q* I would be grateful if you could share the reported Remaining (without cofactor) for CC(C)[C@H](Nc1ncnc2[nH]c(-c3cnn(C)c3C#N)cc12)c1ccc2c(c1)NC(=O)CO2 .
*A* 101

*Q* I would be grateful if you could share the reported Remaining (without cofactor) for CC(C)[C@@H](Nc1ncnc2[nH]cc(C(N)=O)c12)c1ccc2c(c1)OCCO2 .
*A* 110

*Q* I would be grateful if you could share the reported Remaining (without cofactor) for CC(C)[C@@H](Nc1ncnc2[nH]c(C(=O)N[C@@H]3CCN(C)C3)cc12)c1ccc2c(c1)S(=O)(=O)CCC2 .
*A* 106

*Q* I would be grateful if you could share the reported Remaining (without cofactor) for COc1ccc([C@@H](Cc2nnn[nH]2)NC(=O)c2ncnc3[nH]ccc23)cc1 .
*A* 110

*Q* I would be grateful if you could share the reported Remaining (without cofactor) for CC(C)[C@H](Nc1ncnc2[nH]c(-c3cnn(CC(=O)N(C)C)c3)cc12)c1ccc2c(c1)S(=O)(=O)CCC2 .
*A* 97

*Q* I would be grateful if you could share the reported Remaining (without cofactor) for CNC(=O)c1c[nH]c2ncnc(N[C@@H](c3ccc4c(c3)OCCO4)C(C)C)c12 .
*A* 113

*Q* I would be grateful if you could share the reported Remaining (without cofactor) for CC(C)[C@@H](Nc1ncnc2[nH]c(-c3ccc4nnn(C)c4c3)cc12)c1ccc2c(c1)S(=O)(=O)CCC2 .
*A* 93

*Q* I would be grateful if you could share the reported Remaining (without cofactor) for CC(C)[C@H](Nc1ncnc2[nH]c(-c3cnn(CC(N)=O)c3)cc12)c1ccc2c(c1)OCCO2 .
*A* 102

*Q* I would be grateful if you could share the reported Remaining (without cofactor) for CC(C)[C@H](Nc1ncnc2[nH]c(-c3cnn(CC(N)=O)c3)cc12)c1ccc2c(c1)S(=O)(=O)CCC2 .
*A* 115

###

Test: Mouse liver microsomal stability of compound in microsomal protein, PBS buffer pH 7.4, NADPH, glucose-6-phosphate and glucose-6-phosphate dehydrogenase media. Aliquotes were taken at 5 time points and after stopping the reaction, supernatants were analyzed using HPLC coupled with a tandem mass spectrometer. The elimination constant, half-life, and intrinsic clearance are determined as results using linear regression analysis. The assay has been performed by Enamine biological services, Bienta Ltd.The protocol is publicly available: dx.doi.org/10.17504/protocols.io.5qpvokdb9l4o/v1
Assay type: ADME, microsomes, Microsome
Conditions: liver microsomes
Measurement Name: microsomal CLint (µL/min/mg)

Known results for compounds:
*Q* I would be grateful if you could share the reported microsomal CLint for CC(C)(C)[C@H](Nc1ncnc2[nH]c(-c3cnn(CC(N)=O)c3)cc12)c1ccc2c(c1)OCCO2 .
*A* 44

*Q* I would be grateful if you could share the reported microsomal CLint for CC(C)[C@H](Nc1ncnc2[nH]c(-c3cnn(C)c3C#N)cc12)c1ccc2c(c1)NC(=O)CO2 .
*A* 81

P: CC(C)[C@@H](Nc1ncnc2[nH]c(C(=O)N[C@@H]3CCN(C)C3)cc12)c1ccc2c(c1)S(=O)(=O)CCC2
Q: CC(C)[C@H](Nc1ncnc2[nH]c(-c3cnn(C)c3)cc12)c1ccc2c(c1)S(=O)(=O)CCC2
R: CNC(=O)c1cccc(-c2cc3c(N[C@@H](c4ccc5c(c4)S(=O)(=O)CCC5)C(C)C)ncnc3[nH]2)c1
*Q* Put these in order: smallest microsomal CLint first, largest last. List the labels, following the order given in the request.
*A* P, Q, R
(P: 11 µL/min/mg, Q: 255 µL/min/mg, R: 882 µL/min/mg)

###

Test: Mouse liver microsomal stability of compound in microsomal protein, PBS buffer pH 7.4, NADPH, glucose-6-phosphate and glucose-6-phosphate dehydrogenase media. Aliquotes were taken at 5 time points and after stopping the reaction, supernatants were analyzed using HPLC coupled with a tandem mass spectrometer. The elimination constant, half-life, and intrinsic clearance are determined as results using linear regression analysis. The assay has been performed by Enamine biological services, Bienta Ltd.The protocol is publicly available: dx.doi.org/10.17504/protocols.io.5qpvokdb9l4o/v1
Type: ADME, microsomes, Microsome
Conditions: liver microsomes
Measurement Name: half-life (min)

*Q* I would be grateful if you could share the reported half-life for CNC(=O)Cn1cc(-c2cc3c(N[C@@H](c4ccc5c(c4)OCCO5)C(C)C)ncnc3[nH]2)cn1 .
*A* 35.7

*Q* I would be grateful if you could share the reported half-life for CNC(=O)c1c[nH]c2ncnc(N[C@@H](c3ccc4c(c3)S(=O)(=O)CCC4)C(C)C)c12 .
*A* 8.7

*Q* I would be grateful if you could share the reported half-life for CC(C)[C@H](Nc1ncnc2[nH]c(-c3cnn(C)c3C#N)cc12)c1ccc2c(c1)S(=O)(=O)CCC2 .
*A* 5.4

*Q* I would be grateful if you could share the reported half-life for CC(C)[C@H](Nc1ncnc2[nH]cc(C(=O)NC3CC3)c12)c1ccc2c(c1)S(=O)(=O)CCC2 .
*A* 39.5

1: CC(C)[C@@H](Nc1ncnc2[nH]c(-c3cnn(CC(N)=O)c3)cc12)c1ccc2c(c1)OCCO2
2: CC(C)[C@H](Nc1ncnc2[nH]c(C(=O)N[C@H]3CCN(C)C3)cc12)c1ccc2c(c1)S(=O)(=O)CCC2
3: CC(C)[C@H](Nc1ncnc2[nH]c(-c3cnn(C)c3)cc12)c1ccc2c(c1)S(=O)(=O)CCC2
4: CCNC(=O)c1cc2c(N[C@H](c3ccc4c(c3)S(=O)(=O)CCC4)C(C)C)ncnc2[nH]1
*Q* Put these in order: smallest half-life first, largest last. List the labels, following the order given in the request.
*A* 3, 4, 1, 2

###

Assay: Human liver microsomal stability of compound in microsomal protein, PBS buffer pH 7.4, NADPH, glucose-6-phosphate and glucose-6-phosphate dehydrogenase media. Aliquotes were taken at 5 time points and after stopping the reaction, supernatants were analyzed using HPLC coupled with a tandem mass spectrometer. The elimination constant, half-life, and intrinsic clearance are determined as results using linear regression analysis. The assay has been performed by Enamine biological services, Bienta Ltd.The protocol is publicly available: dx.doi.org/10.17504/protocols.io.5qpvokdb9l4o/v1
Type: ADME, microsomes, Microsome
Settings: liver microsomes
Measurement Name: half-life (min)

*Q* I would be grateful if you could share the reported half-life for COc1ccc([C@@H](CC(=O)O)NC(=O)c2ncnc3[nH]ccc23)cc1 .
*A* 240

*Q* I would be grateful if you could share the reported half-life for CC(C)[C@@H](Nc1ncnc2[nH]ccc12)c1ccc2c(c1)S(=O)(=O)CCC2 .
*A* 44.7

*Q* I would be grateful if you could share the reported half-life for CC(C)[C@H](Nc1ncnc2[nH]c(-c3cnn(C)c3C#N)cc12)c1ccc2c(c1)NC(=O)CO2 .
*A* 14.6

*Q* I would be grateful if you could share the reported half-life for CC(C)[C@H](Nc1ncnc2[nH]c(-c3cnn(CC(=O)N(C)C)c3)cc12)c1ccc2c(c1)OCCO2 .
*A* 3.3

*Q* I would be grateful if you could share the reported half-life for CC(C)[C@@H](Nc1ncnc2[nH]c(-c3cnn(CC(=O)N(C)C)c3)cc12)c1ccc2c(c1)OCCO2 .
*A* 11.8

*Q* I would be grateful if you could share the reported half-life for CC(C)[C@H](CO)Nc1ncnc2[nH]ccc12 .
*A* 289

A: CNC(=O)c1c[nH]c2ncnc(N[C@@H](c3ccc4c(c3)OCCO4)C(C)C)c12
B: CC(C)[C@@H](Nc1ncnc2[nH]c(C(=O)N[C@H]3CCN(C)C3)cc12)c1ccc2c(c1)S(=O)(=O)CCC2
C: CC(C)[C@H](Nc1ncnc2[nH]c(C(=O)N[C@@H]3CCN(C)C3)cc12)c1ccc2c(c1)S(=O)(=O)CCC2
*Q* Kindly order the items shown according to half-life, from the highest value down. List the labels, following the order given in the request.
*A* C, B, A

A: CNC(=O)c1cccc(-c2cc3c(N[C@@H](c4ccc5c(c4)S(=O)(=O)CCC5)C(C)C)ncnc3[nH]2)c1
B: COc1ccc2c(c1)CCN(c1ncnc3[nH]ccc13)[C@H]2C(C)C
C: CC(C)[C@@H](Nc1ncnc2[nH]ccc12)c1ccc2c(c1)S(=O)(=O)CCO2
*Q* Kindly order the items shown according to half-life, from the highest value down. List the labels, following the order given in the request.
*A* C, B, A

From: ChEMBL document CHEMBL5442168
